Target: T1, human OX40 protein (Acro biosystem, #OX0-H5224) (human, UniProt P43489 29-216)
T1 construct: Bought recombinant protein
T1 sequence (looked up): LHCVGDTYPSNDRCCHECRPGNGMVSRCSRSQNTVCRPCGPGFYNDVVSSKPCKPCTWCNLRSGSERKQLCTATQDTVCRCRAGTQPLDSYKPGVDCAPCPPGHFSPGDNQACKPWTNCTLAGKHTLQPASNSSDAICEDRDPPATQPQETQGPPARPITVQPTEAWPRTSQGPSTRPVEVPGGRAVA
Assay: ELISA, coated human OX40 protein
recorded_endpoint: EC50

Worked examples, 3 binders total:
binder	recorded_endpoint	reported
PR002055 (antibody, human IgG1, V domains shown, no light chain; also called anti-OX40 HCAb antibody) VH: EVQLLESGGGLVQPGGSLRLSCAASGLTFSSYAMSWVRQAPGKGLEWISAISGGGGSTYYADSVRGRFTISRDNSKNTLYLQMNSLRAEDTAVYYCANGMTGSTDVDYWGQGTLVTVSS	EC50	0.0268 nM
PR002071 (antibody, human IgG1, V domains shown, no light chain; also called anti-OX40 HCAb antibody) VH: EVQLVESGGGLVQPGGSLRLSCAASGFTFSSYAMSWVRQAPGKGLEWVSAISGGGGSIFYADSVRGRFTISRDNSKNTLYLQMNSLRAEDTAVYYCANGMTGTTDVDYWGQGTLVTVSS	EC50	0.0502 nM
PR002058 (antibody, human IgG1, V domains shown, no light chain; also called anti-OX40 HCAb antibody) VH: EVQLLESGGGLVQPGGSLRLSCAASGFTFSSYAMSWVRQAPGKGLEWVSAISGGSGSTFYADSVRGRFTISRDNSKNTLYLQMNSLRAEDTAVYYCADGVTGTDFDFWGQGTLVTVSS	EC50	0.0629 nM

Now examine the next entry.
Quick note, EC50 for PR002062 (antibody, human IgG1, V domains shown, no light chain; also called anti-OX40 HCAb antibody) VH: EVQLLESGGGLVQPGGSLRLSCAASGFTFSSYAMSWVRQAPGKGQEWVSAISGSGGSTFYADSVRGRFTISRDNSKNTLYLQMSSLRAEDTAVYYCANGMTGTTDVDYWGQGTLVTVSS landed at 0.103 nM

Recorded values, source patent US20230295324A1.
